Test protocol: activity coefficient (dimensionless); of the first substance listed, at infinite dilution; xn = mol fraction of the nth substance listed
Test context: 368.15 K; 101 kPa; Liquid; Chromatography; x1 = 0
Given measured activity coefficient, output met if it is greater than or equal to 5 and not met if not.

## Input Could you verify whether the entry C=CCCCCC [1-heptene] + O=S(=O)([N-]S(=O)(=O)C(F)(F)F)C(F)(F)F.OCCC[n+]1ccccc1 shows activity coefficient of no less than 5?
## Output met

## Input Could you verify whether the entry C#CCCCC [1-hexyne] + O=S(=O)([N-]S(=O)(=O)C(F)(F)F)C(F)(F)F.OCCC[n+]1ccccc1 shows activity coefficient of no less than 5?
## Output met

## Input Could you verify whether the entry C=CCCCCCC [oct-1-ene] + O=S(=O)([N-]S(=O)(=O)C(F)(F)F)C(F)(F)F.OCCC[n+]1ccccc1 shows activity coefficient of no less than 5?
## Output met

## Input Could you verify whether the entry COC(C)(C)C [2-methoxy-2-methylpropane] + O=S(=O)([N-]S(=O)(=O)C(F)(F)F)C(F)(F)F.OCCC[n+]1ccccc1 shows activity coefficient of no less than 5?
## Output not met

## Input Could you verify whether the entry O [water] + O=S(=O)([N-]S(=O)(=O)C(F)(F)F)C(F)(F)F.OCCC[n+]1ccccc1 shows activity coefficient of no less than 5?
## Output not met

## Input Could you verify whether the entry CCC(C)(C)OC [2-methoxy-2-methylbutane] + O=S(=O)([N-]S(=O)(=O)C(F)(F)F)C(F)(F)F.OCCC[n+]1ccccc1 shows activity coefficient of no less than 5?
## Output not met

## Input Could you verify whether the entry CC(C)CC(C)(C)C [2,2,4-trimethylpentane] + O=S(=O)([N-]S(=O)(=O)C(F)(F)F)C(F)(F)F.OCCC[n+]1ccccc1 shows activity coefficient of no less than 5?
## Output met
